Tested on: M14 melanoma
Experiment: NCI-60 one-dose screen, 48 h (100 = growth as untreated, 0 = no growth, -100 = all killed)
Details: 10 µM unless noted
This is part of a sample that, as a whole, favours compounds with a hit. Of some 83,000 tested, about 20% had one in any assay.
Rule: measured growth below 40% gets 1; anything equal to or greater than 40% gets -1.

Previously resolved entries follow.
• COc1cnc2c(c1)C(=O)c1c-2n(CCCN2CCN(C)CC2)c(=O)c2cc(Cl)ccc12 = 1
• O=C(N/N=C\c1cc(Br)ccc1O)c1ccncc1 = 1
• CC(C)N(C(=S)SSC(=S)N(C(C)C)C(C)C)C(C)C = -1
• CC(C)c1nc2ccccc2n1CC(=O)N/N=C/c1cccc(O)c1 = -1
• ClC1(Cl)C2CCCCCCC21 (stereo unspecified) = -1

Ask: Determine if COc1ccc(C(=O)OC2C(OC3C(O)COC(O[C@H]4C[C@H]5[C@@H]6CC=C7C[C@@H](O)CC[C@]7(C)[C@H]6CC[C@]5(C)[C@H]4[C@H](C)C(=O)CCC(C)C)C3OC(=O)C(C)C)OCC(O)C2O)cc1 (stereo partly specified) shows growth strictly lower than 40%.
Reply: 1

Ask: Determine if COc1cnc2c(c1)C(=O)c1c-2n(CCCN2CCNCC2)c(=O)c2cc(Cl)ccc12 shows growth strictly lower than 40%.
Reply: 1

Ask: Determine if c1csc(-c2cnc3nonc3n2)c1 shows growth strictly lower than 40%.
Reply: -1

Ask: Determine if CCCCCCCCN=C(NCCCCCCCC)SCc1cccc2ccccc12 shows growth strictly lower than 40%.
Reply: 1
